Target: 5-hydroxytryptamine receptor 2A (Homo sapiens) (UniProt P28223)
Sequence (P28223 whole entry, looked up): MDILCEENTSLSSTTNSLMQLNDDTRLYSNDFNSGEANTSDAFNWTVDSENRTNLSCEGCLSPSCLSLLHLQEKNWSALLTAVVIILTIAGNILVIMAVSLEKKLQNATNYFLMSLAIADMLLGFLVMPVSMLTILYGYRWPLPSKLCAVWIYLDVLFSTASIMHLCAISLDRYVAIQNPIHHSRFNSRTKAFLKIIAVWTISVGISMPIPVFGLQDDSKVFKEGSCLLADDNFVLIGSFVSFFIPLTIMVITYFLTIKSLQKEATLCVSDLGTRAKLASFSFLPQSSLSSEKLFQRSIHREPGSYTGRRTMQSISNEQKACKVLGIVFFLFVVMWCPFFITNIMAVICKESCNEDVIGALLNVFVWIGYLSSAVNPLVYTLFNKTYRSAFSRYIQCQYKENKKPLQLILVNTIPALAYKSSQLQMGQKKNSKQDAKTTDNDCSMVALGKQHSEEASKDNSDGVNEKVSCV
Assay: 5-hydroxytryptamine receptor 2A (HTR2A) small molecule agonists, cell-based qHTS assay (AID 1963587); further: nearly all actives have a fitted effect of over 30% in size
Settings: HTR2A-CHO cells, calcium flux fluorescence, agonist mode; series mostly up to 76.8 µM
Inconclusive results are not listed. Calls of active or inactive are those of the source. The call rests on the fitted dose curve.
Respond with a class label; see true (1) for active, false (0) for inactive

Examples from the recorded data:
# compound, category label
records = [
    ("COc1cc(NCc2ccc3nc(N)nc(N)c3c2C)cc(OC)c1OC", "false (0)"),
    ("Nc1c(Cl)cc(Cl)cc1[N+](=O)[O-]", "false (0)"),
    ("CCc1cccc2c(CCO)c[nH]c12", "false (0)"),
    ("O=C(O)c1ccc(O)c(O)c1", "false (0)"),
]

Data request: Given O=C(OCC(O)CO)c1ccccc1Nc1ccnc2cc(Cl)ccc12 (stereo not given) , state the outcome it received in this test.
Data returned: false (0)

Data request: Dear colleague, could you share the recorded outcome for COC(=O)C1=C(C)NC(C)=C(C(=O)OCCc2ccc(N3CCN(C(c4ccccc4)c4ccccc4)CC3)cc2)C1c1cccc([N+](=O)[O-])c1 (stereo not given) when you have a moment?
Data returned: false (0)

Data request: Give the logged outcome of this assay for the following compound: `O=C(O)c1ccc(S(=O)(=O)O)cc1C(=O)O`
Data returned: false (0)

Data request: Per the assay record, what outcome was assigned to `CC1(C)C(=O)N(Br)C(=O)N1Br` ?
Data returned: false (0)

Data request: Name the outcome recorded for `Cc1nnc(SCC2=C(C(=O)O)N3C(=O)[C@@H](NC(=O)Cn4cnnn4)[C@H]3SC2)s1` in the assay.
Data returned: false (0)
